- System: Enterobacter cloacae IND + VE 1194E
- protocol details: Minimum inhibitory concentration (agar 2-fold dilution)
- Assay type: cell-based
- experimental conditions: E. cloacae IND + VE 1194E, Muller-Hinton agar, 37° C., 20 hours, read-out: Minimum Inhibitory Concentration
Could you please report measured MIC for the items listed next?
# unit: µg/mL | format: bare number

Field MIC (entry "Nc1nc(/C(=N/O[C@H](C(=O)O)c2ccc(O)c(O)c2)C(=O)N[C@@H]2C(=O)N3C(C(=O)[O-])=C(/C=C/C[n+]4cnc(N)c(N)c4N)CS[C@H]23)cs1" ) reads 1

The compound listed as "Nc1cc[n+](C/C=C/C2=C(C(=O)[O-])N3C(=O)[C@@H](NC(=O)/C(=N\O[C@@H](C(=O)O)c4ccc(O)c(O)c4)c4csc(N)n4)[C@H]3SC2)cn1" shows MIC equal to 16

Memo: "Nc1nc(/C(=N/O[C@H](C(=O)O)c2ccc(O)c(O)c2)C(=O)N[C@@H]2C(=O)N3C(C(=O)[O-])=C(/C=C/C[n+]4cnc(N)c5c4CCC5)CS[C@H]23)cs1" , reported MIC: 2
